Each entry below lists one item and its recorded photoluminescence quantum yield value.
- Assay remarks: photoluminescence quantum yield (fraction); solvent given as SMILES
- Run parameters: in CO
// no unit, no text: just the number

Solved cases below.
Ask | Quick one: give measured photoluminescence quantum yield for CCC1=C(C)C(=O)n2c1cc1c(C)c(CC(=O)OC)c(C)n1c2=O
Reply | 0.94

Ask | Quick one: give measured photoluminescence quantum yield for CC(=O)c1ccc(/C=C/C=C/C2=NC3C(=O)NC(N)=NC3N2[C@H]2C[C@H](O)[C@@H](CO)O2)cc1 (stereo partly drawn)
Reply | 0.015

Proceeding to the next molecule to report its photoluminescence quantum yield.
Ask | Quick one: give measured photoluminescence quantum yield for COc1cccc(OC)c1C1=C2C(C)=CC(C)=[N+]2[B-](F)(F)n2c(C)cc(C)c21
Reply | 0.58
